test system: carrageenan-induced rat paw edema; assay: Carrageenan-induced rat paw edema model; type: in vivo; details: Rattus norvegicus; 10.0 mg/kg, 4 h
Consider the following molecules; for each one, report its inhibition in vivo at 10 mg/kg.
The reply must contain the numeric value and, after it, the unit.

Ask: Fetch value of inhibition in vivo at 10 mg/kg on carrageenan-induced rat paw edema for COc1ccc2cc([C@H](C)C(=O)NC(=S)Nc3ccccc3OC)ccc2c1 [Compound 11] .
Result: 31.1%

Ask: Report its inhibition in vivo at 10 mg/kg with carrageenan-induced rat paw edema as the test system: COc1ccc2cc([C@H](C)C(=O)O)ccc2c1 [Naproxen, naproxen]
Result: 57.8%

Ask: Provide inhibition in vivo at 10 mg/kg, recorded with carrageenan-induced rat paw edema, of COC(=O)[C@H](Cc1c[nH]c2ccccc12)NC(=S)NC(=O)[C@@H](C)c1ccc2cc(OC)ccc2c1 [Compound 14]
Result: 46.7%

Ask: Please tell me the measured inhibition in vivo at 10 mg/kg for COc1ccc2cc([C@H](C)C(=O)NC(=S)Nc3ccccc3C)ccc2c1 [Compound 10] ; system: carrageenan-induced rat paw edema.
Result: 35.6%

Ask: Quote inhibition in vivo at 10 mg/kg with test system carrageenan-induced rat paw edema for COc1ccc2cc([C@H](C)C(=O)NC(=S)Nc3ccccc3F)ccc2c1 [Compound 12]
Result: 46.7%
